Consider the following compounds and their measured IC50 readings.
biological target: ComER (Bacillus subtilis, UniProt P39696)
Sequence (P39696 whole entry): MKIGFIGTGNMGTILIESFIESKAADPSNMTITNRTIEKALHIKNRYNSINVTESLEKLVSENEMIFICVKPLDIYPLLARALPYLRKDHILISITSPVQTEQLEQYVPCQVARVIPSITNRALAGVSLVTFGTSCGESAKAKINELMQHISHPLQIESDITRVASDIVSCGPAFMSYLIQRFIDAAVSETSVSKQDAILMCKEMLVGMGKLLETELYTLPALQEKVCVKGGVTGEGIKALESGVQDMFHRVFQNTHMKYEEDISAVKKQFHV
quantity.measured: IC50 (mM)

molecular.string | result.unit | reading
NC(=O)c1ccc[n+]([C@@H]2O[C@H](COP(=O)(O)OP(=O)(O)OC[C@H]3O[C@@H](n4cnc5c(N)ncnc54)[C@H](OP(=O)(O)O)[C@@H]3O)[C@@H](O)[C@H]2O)c1 | mM | 0.48
NC(=O)c1ccc[n+]([C@@H]2O[C@H](COP(=O)(O)OP(=O)(O)OC[C@H]3O[C@@H](n4cnc5c(N)ncnc54)[C@H](O)[C@@H]3O)[C@@H](O)[C@H]2O)c1 | mM | 29.7

Reference for the values: paper PMC5539093
